# METHOD DESCRIPTION: viability loss with induced miR-34 in A549 – imaging, A549 dox-inducible miR-34, nuclei and caspase counts, primary screen (AID 1347080)
# CONDITION INFO: A549 miR-34 inducible, Hoechst nuclei count, 48 h; active compounds read low; cell number ratio, induced over uninduced
MEASURED QUANTITY: fold change
Answer with a number only.

Specify measured fold change for `Nc1ccc(C(=O)O)cc1` .
0.846

Look up fold change of `CC(=O)NO` and report it.
0.922

Please supply the value of reported fold change for the item `C#CCN[C@@H]1CCc2ccccc21`
0.9

---

# METHOD DESCRIPTION: P. berghei load reduction in hepatocytes – cell-based, HepG2, luciferase luminescence, HepG2 viability, primary screen (AID 624349);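 note: 100% = mean of DMSO negative control wells on the same plate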
# CONDITION INFO: P. berghei liver stage in HepG2, luciferase luminescence, concentration not given here; active compounds read low
Starred links: 1 amine or outer side, 2 acyl side, 3 side chain; linkers in the order of their positions; H or OH if unused. Positions of bridges follow the written chain, without caps; N, C: chain ends. Non-standard residues stand in square brackets, D forms with d. Residues, ends and D or L forms follow the SMILES beside them. Chains are numbered I, II in the order given. Actinocin(9to1) = Cc1c2oc3c(C)ccc(C(=O)[*:1])c3nc-2c(C(=O)[*:2])c(N)c1=O; NMeV = CN[C@H](C(=O)O)C(C)C; Sar = CNCC(=O)O
Classes (parasite load remaining): bottom end = under 30%, midrange = from 30% up to 80%, top end = 80% and over

Which bin, given its parasite load remaining, does `CC(=O)[C@@]1(O)CC[C@H]2[C@@H]3C[C@H](C)C4=CC(=O)C=C[C@]4(C)[C@@]3(F)[C@@H](O)C[C@@]21C` occupy?
top end

Category of `CN(C)CCc1c[nH]c2ccc(CS(=O)(=O)N3CCCC3)cc12` :
top end

Would you mind sorting `Cc1cc(=O)[nH]c(=S)[nH]1` into the appropriate category?
midrange

Categorize the following entry: `O=c1c(-c2ccccc2)c1-c1ccccc1`
bottom end

Which parasite load remaining category applies to `CC(C)c1nc(CN(C)C(=O)N[C@H](C(=O)N[C@@H](Cc2ccccc2)C[C@H](O)[C@H](Cc2ccccc2)NC(=O)OCc2cncs2)C(C)C)cs1` here?
midrange

Category of `CC(=O)NCCCCCC(=O)O` :
top end

Which class holds `Cc1nc2sccn2c(=O)c1CCN1CCC(=C(c2ccc(F)cc2)c2ccc(F)cc2)CC1` ?
bottom end

Exercise: read the entry `COC(=O)C1=C(C)NC(C)=C(C(=O)O[C@@H]2CCCN(Cc3ccccc3)C2)[C@@H]1c1cccc([N+](=O)[O-])c1` and state which class it falls under.
bottom end

Please classify: `O=C(O)CCNC(=O)c1ccccc1`
top end

Form field 'band' for `CN(CCCN1c2ccccc2CCc2ccccc21)CC(=O)c1ccc(Cl)cc1`
midrange

Kindly state the category for this compound: `CNCCCCOc1ccccc1Cc1ccccc1`
bottom end

// return the class label for `COc1cc([C@H]2Oc3cc([C@H]4Oc5cc(O)cc(O)c5C(=O)[C@@H]4O)ccc3O[C@@H]2CO)ccc1O`
midrange

Form field 'band' for `COc1cc2c(cc1OC)-c1cc(=Nc3c(C)cc(C)cc3C)n(C)c(=O)n1CC2`
bottom end

Hi there! Could you help me figure out the category for `C[C@@H]1C[C@H]2[C@@H]3C[C@H](F)C4=CC(=O)C=C[C@]4(C)[C@@]3(F)[C@@H](O)C[C@]2(C)[C@@]1(O)C(=O)CO` please?
top end

Which bin should I file `O=c1ccc2ccccc2o1` under?
midrange

Hi there! Could you help me figure out the category for `O=C1[C@H]2CCCC[C@H]2C(=O)N1CCCCN1CCN(c2nsc3ccccc23)CC1` please?
midrange

Please let me know in which category the item O=C(O)CCCCC1CCSS1 (stereo unspecified) belongs.
top end

Assign a bin to `Cc1onc(-c2ccccc2)c1C(=O)N[C@@H]1C(=O)N2[C@@H]1SC(C)(C)[C@@H]2C(=O)O`
bottom end

In plain terms, what class is `COc1ccc2cc1Oc1ccc(cc1)C[C@H]1c3c(cc4c(c3Oc3cc5c(cc3OC)CCN(C)[C@@H]5C2)OCO4)CCN1C` ?
top end

Which of the defined bands does the recorded parasite load remaining of Cc1c2oc3c(C)ccc(C(=O)N[C@@H]4C(=O)N[C@H](C(C)C)C(=O)N5CCC[C@H]5C(=O)N(C)CC(=O)N(C)[C@@H](C(C)C)C(=O)O[C@@H]4C)c3nc-2c(C(=O)N[C@@H]2C(=O)N[C@H](C(C)C)C(=O)N3CCC[C@H]3C(=O)N(C)CC(=O)N(C)[C@@H](C(C)C)C(=O)O[C@@H]2C)c(N)c1=O (I: T[dV]P[Sar][NMeV] / II: T[dV]P[Sar][NMeV]; ester I:1-I:C, II:1-II:C; linker I:N-II:N via Actinocin(9to1)) sit within?
bottom end

Kindly state the category for this compound: CNCC(O)c1ccc(O)c(O)c1 (stereo unspecified)
midrange

Any idea which band `CC(C)c1ccc2oc3nc(N)c(C(=O)O)cc3c(=O)c2c1` is in?
top end

For this compound, which bin applies? `COCCCC/C(=N\OCCN)c1ccc(C(F)(F)F)cc1`
top end

Kindly state the category for this compound: `C[C@@H]1CN(c2c(F)c(N)c3c(=O)c(C(=O)O)cn(C4CC4)c3c2F)C[C@H](C)N1`
bottom end

Hello team, could you let me know which band the following compound falls into: `CNC[C@H](O)[C@@H](O)[C@H](O)[C@H](O)CO`
midrange

Categorize the following entry: `C[C@@](Cc1ccc(O)c(O)c1)(NN)C(=O)O`
midrange

Which category fits this record: `CCCCCN(C)CCC(O)(P(=O)(O)O)P(=O)(O)O`
bottom end

Into which category would you place `O=c1oc2c(O)c(O)cc3c(=O)oc4c(O)c(O)cc1c4c23` ?
top end

Consider `Cc1ccsc1C(=CCCN1CCC[C@@H](C(=O)O)C1)c1sccc1C` . To which parasite load remaining class does it belong?
top end

Class label required: `CN(C)CC[C@@H](c1ccc(Br)cc1)c1ccccn1`
top end

---

Can you tell me fluorescence slope change for the items I'm about to list?
# SYSTEM NAME: ATP-dependent translocase ABCB1 (Homo sapiens) (UniProt P08183)
# Sequence (P08183 whole entry, looked up): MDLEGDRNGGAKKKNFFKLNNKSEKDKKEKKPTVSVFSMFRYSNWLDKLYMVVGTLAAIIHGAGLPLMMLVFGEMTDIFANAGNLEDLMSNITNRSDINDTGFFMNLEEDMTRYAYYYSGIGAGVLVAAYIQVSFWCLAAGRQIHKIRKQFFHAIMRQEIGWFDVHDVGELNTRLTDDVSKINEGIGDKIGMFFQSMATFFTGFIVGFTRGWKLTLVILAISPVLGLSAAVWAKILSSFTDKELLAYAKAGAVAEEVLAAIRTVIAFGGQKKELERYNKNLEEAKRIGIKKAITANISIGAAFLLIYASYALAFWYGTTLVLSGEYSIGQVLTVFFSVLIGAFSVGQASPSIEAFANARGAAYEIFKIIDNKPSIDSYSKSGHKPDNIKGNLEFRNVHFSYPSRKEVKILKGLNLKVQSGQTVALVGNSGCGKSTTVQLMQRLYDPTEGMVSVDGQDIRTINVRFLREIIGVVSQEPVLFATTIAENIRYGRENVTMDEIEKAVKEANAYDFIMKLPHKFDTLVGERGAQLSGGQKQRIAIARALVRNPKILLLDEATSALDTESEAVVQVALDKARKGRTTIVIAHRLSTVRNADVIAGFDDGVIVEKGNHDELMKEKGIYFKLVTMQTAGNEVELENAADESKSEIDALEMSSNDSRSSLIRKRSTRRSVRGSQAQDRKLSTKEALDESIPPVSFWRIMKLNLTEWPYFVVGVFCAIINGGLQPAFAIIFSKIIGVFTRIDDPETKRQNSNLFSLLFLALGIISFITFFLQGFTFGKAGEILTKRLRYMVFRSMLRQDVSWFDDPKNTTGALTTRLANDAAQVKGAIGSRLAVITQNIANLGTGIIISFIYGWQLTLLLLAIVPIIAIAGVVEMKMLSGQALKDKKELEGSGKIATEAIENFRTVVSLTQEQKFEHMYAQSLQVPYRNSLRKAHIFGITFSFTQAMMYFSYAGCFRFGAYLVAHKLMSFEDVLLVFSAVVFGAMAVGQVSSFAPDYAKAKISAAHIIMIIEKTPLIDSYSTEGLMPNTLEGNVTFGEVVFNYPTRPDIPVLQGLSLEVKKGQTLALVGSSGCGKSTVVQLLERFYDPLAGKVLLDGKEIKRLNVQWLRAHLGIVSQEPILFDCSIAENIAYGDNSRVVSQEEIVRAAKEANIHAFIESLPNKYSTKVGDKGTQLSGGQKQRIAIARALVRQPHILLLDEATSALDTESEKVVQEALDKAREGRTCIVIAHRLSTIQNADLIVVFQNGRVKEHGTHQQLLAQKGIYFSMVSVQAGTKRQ
# METHOD DESCRIPTION: P-glycoprotein substrate transport blockade – cell-based (AID 377)
# CONDITION INFO: MDR1-expressing cells, fluorescent substrate accumulation slope; active compounds read high; concentration not given here
Inconclusive results are not listed.
Report as a plain number; the unit % is understood.

Look up ATP-dependent translocase ABCB1 (Homo sapiens) (UniProt P08183) data: fluorescence slope change of COCCc1ccc(OCC(O)CNC(C)C)cc1 (stereo unspecified) , then report it.
51

Supply fluorescence slope change measured with ATP-dependent translocase ABCB1 (Homo sapiens) (UniProt P08183) for C=CCc1ccccc1OCC(O)CNC(C)C (stereo unspecified) .
80.3

Enter fluorescence slope change (test system ATP-dependent translocase ABCB1 (Homo sapiens) (UniProt P08183)) for `CC(=O)OCC1=C(C(=O)O)N2C(=O)[C@@H](NC(=O)Cc3cccs3)[C@H]2SC1`
2.1

Enter measured fluorescence slope change, system ATP-dependent translocase ABCB1 (Homo sapiens) (UniProt P08183), for the molecule shown: Cc1ccccc1N1C(=O)c2cc(S(N)(=O)=O)c(Cl)cc2NC1C (stereo unspecified)
79.4

Return reported fluorescence slope change for target or system ATP-dependent translocase ABCB1 (Homo sapiens) (UniProt P08183), item Clc1ccc(C(c2ccccc2Cl)C(Cl)Cl)cc1 (stereo unspecified) .
7.7

Provide measured fluorescence slope change on ATP-dependent translocase ABCB1 (Homo sapiens) (UniProt P08183) for `CC1(C)OC(=O)NC1=O` please.
19.4

Answer with fluorescence slope change of `Cc1onc(-c2ccccc2Cl)c1C(=O)N[C@@H]1C(=O)N2[C@@H]1SC(C)(C)[C@@H]2C(=O)O` measured for ATP-dependent translocase ABCB1 (Homo sapiens) (UniProt P08183).
68

Print ATP-dependent translocase ABCB1 (Homo sapiens) (UniProt P08183) fluorescence slope change for `NCCCC[C@H](N[C@@H](CCc1ccccc1)C(=O)O)C(=O)N1CCC[C@H]1C(=O)O` .
60.6

Lab note: ATP-dependent translocase ABCB1 (Homo sapiens) (UniProt P08183) assay, enter fluorescence slope change for `CCOC(=O)c1ccc(N)cc1` here
53.5

Find fluorescence slope change for `CC(=O)OCC1=C(C(=O)O)N2C(=O)[C@@H](NC(=O)CSc3ccncc3)[C@H]2SC1` on ATP-dependent translocase ABCB1 (Homo sapiens) (UniProt P08183) and write it down.
13.4

Please report fluorescence slope change with ATP-dependent translocase ABCB1 (Homo sapiens) (UniProt P08183) for item `O=C(O)CCC(=O)Nc1ccc(S(=O)(=O)Nc2nccs2)cc1` .
2.1

Identify measured fluorescence slope change obtained with ATP-dependent translocase ABCB1 (Homo sapiens) (UniProt P08183) for `Nc1ncnc2c1ncn2[C@@H]1O[C@H](COP(=O)(O)O)[C@@H](O)[C@H]1O` .
73

Give fluorescence slope change; test system ATP-dependent translocase ABCB1 (Homo sapiens) (UniProt P08183); molecule `Cc1nnc(NS(=O)(=O)c2ccc(N)cc2)s1`
9.7

Recall the reported fluorescence slope change of `CCn1cc(C(=O)O)c(=O)c2cc(F)c(N3CCNCC3)nc21` when tested on ATP-dependent translocase ABCB1 (Homo sapiens) (UniProt P08183).
3.6

Look up and report fluorescence slope change, with ATP-dependent translocase ABCB1 (Homo sapiens) (UniProt P08183) as system, for CC(CN(C)C)CN1c2ccccc2CCc2ccccc21 (stereo unspecified)
61.2

# return fluorescence slope change for `CN(C)[C@@H]1C(=O)C(C(N)=O)=C(O)[C@@]2(O)C(=O)C3=C(O)c4c(O)ccc(Cl)c4[C@@H](O)[C@H]3C[C@@H]12` , test system: ATP-dependent translocase ABCB1 (Homo sapiens) (UniProt P08183)
2.1
